From: patent US9783499B2

- System: HT-29 (colon cancer cell)
- test_protocol: In vitro anti-tumor cellular activity (MTT), HT-29
- Assay type: cell-based
- run_conditions: 72 hours
value_type: HT-29 IC50 (µg/mL)

COc1cc2c(Oc3ccc(NC(=O)N/N=C/c4ccccc4)cc3F)ccnc2cc1OCCCN1CCN(C)CC1; 0.093
COc1cc2c(Oc3ccc(NC(=S)N/N=C/c4ccccc4[N+](=O)[O-])cc3F)ccnc2cc1OCCCN1CCCC1; 0.24
COc1cc2c(Oc3ccc(NC(=O)NN=Cc4ccc(F)cc4Cl)cc3F)ccnc2cc1OCCCN1CCOCC1; 0.81
COc1cc2c(Oc3ccc(NC(=O)N/N=C/c4ccc(F)cc4)cc3F)ccnc2cc1OCCCN1CCC(C)CC1; 0.0015
COc1cc2c(Oc3ccc(/C=N/NC(=S)Nc4cccc(Br)c4)cc3F)ccnc2cc1OCCCN1CCOCC1; 1.9
COc1cc2c(Oc3ccc(NC(=O)NN=Cc4ccc(Cl)cc4Cl)cc3F)ccnc2cc1OCCCN1CCOCC1; 0.84
COc1cc2c(Oc3ccc(NC(=O)N/N=C/c4ccc(F)c(F)c4)cc3F)ccnc2cc1OCCCN1CCCC1; 0.19
